# EXPERIMENT_SUMMARY: LogD7.4 by OECD slow-stirring method with HPLC quantification
# CONDITION_INFO: 1-octanol/PBS buffer (mutually saturated), pH 7.4, LogD7.4, slow-stirring method, 1-octanol/PBS buffer pH 7.4, 25 °C, 48 h
MEASUREMENT_TYPE: logD at 48 h

[[record]]
compound = "O=C(CCCCCCC(=O)Nc1ccccc1)NO [vorinostat, reference compound]"
measurement_type = "logD at 48 h"
assay_value = 0.99


P. CC(=O)Nc1ccc(C(=O)Nc2ccccc2N)cc1 [CI‐994, tacedinaline, reference compound]
Q. CC(=O)Nc1ccc(C(=O)Nc2cc(-c3ccccn3)ccc2N)cc1 [6 f]
R. CC(=O)Nc1ccc(C(=O)Nc2cc(-c3cccs3)ccc2N)cc1 [6 c]
Query: Task field, ranking: reported logD at 48 h, descending order. The reply should contain the labels ordered as requested.
Result: R, Q, P

---

# SUBJECT_OF_TEST: HDAC3 (Homo sapiens)
# EXPERIMENT_SUMMARY: IC50-shift experiments (varied preincubation time)
# Type: biochemical
# CONDITION_INFO: HDAC3 IC50, preincubation 60 min, preincubation time 60 min at 20°C; triplicates
MEASUREMENT_TYPE: IC50 (nM)
State the answer as a number, implicitly in nM.

The reported IC50 of the compound CN(C)c1ccc(C(=O)N(CC(=O)NCc2ccccc2)Cc2ccc(C(=O)Nc3ccccc3N)cc2)cc1 [VK‐1, reference compound] was 299

---

# SUBJECT_OF_TEST: HDAC3 (Homo sapiens, UniProt O15379)
# EXPERIMENT_SUMMARY: IC50-shift experiments (varied preincubation time)
# Assay type: biochemical
# CONDITION_INFO: HDAC3 IC50, preincubation 120 min, preincubation time 120 min at 20°C; triplicates
MEASUREMENT_TYPE: IC50 (nM)
State the answer as a number, implicitly in nM.

The reported IC50 of the molecule CN(C)c1ccc(C(=O)N(CC(=O)NCc2ccccc2)Cc2ccc(C(=O)Nc3ccccc3N)cc2)cc1 [VK‐1, reference compound] was 171

---

# SUBJECT_OF_TEST: HDAC3 (Homo sapiens)
# EXPERIMENT_SUMMARY: IC50-shift experiments (varied preincubation time)
# Assay type: biochemical
# CONDITION_INFO: HDAC3 IC50, preincubation 5 min, preincubation time 5 min at 20°C; triplicates
MEASUREMENT_TYPE: IC50 (nM)
State the answer as a number, implicitly in nM.

Per the reported HDAC3 (Homo sapiens) data, CN(C)c1ccc(C(=O)N(CC(=O)NCc2ccccc2)Cc2ccc(C(=O)Nc3ccccc3N)cc2)cc1 [VK‐1, reference compound] has IC50 of 794

---

# SUBJECT_OF_TEST: HDAC3/NcoR2 (Homo sapiens)
# Sequence (O15379 whole entry): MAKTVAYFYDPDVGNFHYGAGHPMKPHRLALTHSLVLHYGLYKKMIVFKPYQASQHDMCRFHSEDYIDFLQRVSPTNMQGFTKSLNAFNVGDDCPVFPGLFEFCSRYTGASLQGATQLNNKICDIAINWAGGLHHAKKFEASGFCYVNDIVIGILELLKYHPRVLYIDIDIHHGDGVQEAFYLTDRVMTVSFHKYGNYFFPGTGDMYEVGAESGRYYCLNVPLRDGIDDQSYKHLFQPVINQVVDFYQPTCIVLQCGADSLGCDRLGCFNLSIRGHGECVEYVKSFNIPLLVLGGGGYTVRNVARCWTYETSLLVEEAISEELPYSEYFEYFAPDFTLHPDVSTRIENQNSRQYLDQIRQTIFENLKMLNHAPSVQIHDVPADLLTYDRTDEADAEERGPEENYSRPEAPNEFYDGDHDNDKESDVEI
# Sequence (Q9Y618 395-489 partner limits assumed): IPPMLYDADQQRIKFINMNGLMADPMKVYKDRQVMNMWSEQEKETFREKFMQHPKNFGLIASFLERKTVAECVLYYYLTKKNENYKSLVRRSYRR
# EXPERIMENT_SUMMARY: In vitro HDAC inhibition preincubation assay (ZMAL substrate)
MEASUREMENT_TYPE: IC50 (nM)

Study these solved cases before continuing.
[[record]]
compound = "CN(C)c1ccc(C(=O)N(CC(=O)NCc2ccccc2)Cc2ccc(C(=O)Nc3ccccc3N)cc2)cc1 [VK‐1, reference compound]"
assay_value = 310

[[record]]
compound = "CC(=O)Nc1ccc(C(=O)Nc2cc(-c3ccc(F)cc3)ccc2N)cc1"
assay_value = 2000

[[record]]
compound = "CC(=O)Nc1ccc(C(=O)Nc2cc(-c3cccnc3)ccc2N)cc1"
assay_value = 636


P. CC(=O)Nc1ccc(C(=O)Nc2cc(-c3ccncc3)ccc2N)cc1
Q. CC(=O)Nc1ccc(C(=O)Nc2cc(-c3ccc(F)nc3)ccc2N)cc1
R. CN(C)c1ccc(C(=O)N(CC(=O)NC(C)(C)C)Cc2ccc(C(=O)Nc3cc(-c4ccncc4)ccc3N)cc2)cc1
Query: Please list these in order of increasing IC50. Thank you! The reply should contain the labels ordered as requested.
Result: Q, P, R

---

# SUBJECT_OF_TEST: HDAC2 (Homo sapiens)
# Sequence (Q92769 whole entry): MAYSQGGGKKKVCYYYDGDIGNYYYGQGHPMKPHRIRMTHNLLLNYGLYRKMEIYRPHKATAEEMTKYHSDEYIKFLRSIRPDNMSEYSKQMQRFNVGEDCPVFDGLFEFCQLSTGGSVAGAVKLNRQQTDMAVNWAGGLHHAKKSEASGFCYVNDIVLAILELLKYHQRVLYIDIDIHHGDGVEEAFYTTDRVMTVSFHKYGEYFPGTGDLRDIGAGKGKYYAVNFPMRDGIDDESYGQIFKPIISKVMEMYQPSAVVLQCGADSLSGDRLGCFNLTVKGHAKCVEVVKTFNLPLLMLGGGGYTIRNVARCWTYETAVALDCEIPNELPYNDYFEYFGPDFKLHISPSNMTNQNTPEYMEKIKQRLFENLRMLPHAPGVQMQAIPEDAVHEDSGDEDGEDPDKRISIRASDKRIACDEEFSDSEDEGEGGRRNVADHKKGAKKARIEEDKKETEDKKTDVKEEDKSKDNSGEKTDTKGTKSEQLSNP
# EXPERIMENT_SUMMARY: IC50-shift experiments (varied preincubation time)
# Assay type: biochemical
# Design: purchased BPS Bioscience 50052
# CONDITION_INFO: HDAC2 IC50, preincubation 120 min, preincubation time 120 min at 20°C; triplicates
pIC50: −log10 of the molar value.
MEASUREMENT_TYPE: pIC50

[[record]]
chemical_structure = "CC(=O)Nc1ccc(C(=O)Nc2cc(-c3ccncc3)ccc2N)cc1"
measurement_type = "pIC50"
assay_value = 7.20

[[record]]
chemical_structure = "CN(C)c1ccc(C(=O)N(CC(=O)NC(C)(C)C)Cc2ccc(C(=O)Nc3cc(-c4ccncc4)ccc3N)cc2)cc1"
measurement_type = "pIC50"
assay_value = 7.11


---

# SUBJECT_OF_TEST: human recombinant HDAC6 (Homo sapiens, UniProt Q9UBN7)
# Sequence (Q9UBN7 whole entry): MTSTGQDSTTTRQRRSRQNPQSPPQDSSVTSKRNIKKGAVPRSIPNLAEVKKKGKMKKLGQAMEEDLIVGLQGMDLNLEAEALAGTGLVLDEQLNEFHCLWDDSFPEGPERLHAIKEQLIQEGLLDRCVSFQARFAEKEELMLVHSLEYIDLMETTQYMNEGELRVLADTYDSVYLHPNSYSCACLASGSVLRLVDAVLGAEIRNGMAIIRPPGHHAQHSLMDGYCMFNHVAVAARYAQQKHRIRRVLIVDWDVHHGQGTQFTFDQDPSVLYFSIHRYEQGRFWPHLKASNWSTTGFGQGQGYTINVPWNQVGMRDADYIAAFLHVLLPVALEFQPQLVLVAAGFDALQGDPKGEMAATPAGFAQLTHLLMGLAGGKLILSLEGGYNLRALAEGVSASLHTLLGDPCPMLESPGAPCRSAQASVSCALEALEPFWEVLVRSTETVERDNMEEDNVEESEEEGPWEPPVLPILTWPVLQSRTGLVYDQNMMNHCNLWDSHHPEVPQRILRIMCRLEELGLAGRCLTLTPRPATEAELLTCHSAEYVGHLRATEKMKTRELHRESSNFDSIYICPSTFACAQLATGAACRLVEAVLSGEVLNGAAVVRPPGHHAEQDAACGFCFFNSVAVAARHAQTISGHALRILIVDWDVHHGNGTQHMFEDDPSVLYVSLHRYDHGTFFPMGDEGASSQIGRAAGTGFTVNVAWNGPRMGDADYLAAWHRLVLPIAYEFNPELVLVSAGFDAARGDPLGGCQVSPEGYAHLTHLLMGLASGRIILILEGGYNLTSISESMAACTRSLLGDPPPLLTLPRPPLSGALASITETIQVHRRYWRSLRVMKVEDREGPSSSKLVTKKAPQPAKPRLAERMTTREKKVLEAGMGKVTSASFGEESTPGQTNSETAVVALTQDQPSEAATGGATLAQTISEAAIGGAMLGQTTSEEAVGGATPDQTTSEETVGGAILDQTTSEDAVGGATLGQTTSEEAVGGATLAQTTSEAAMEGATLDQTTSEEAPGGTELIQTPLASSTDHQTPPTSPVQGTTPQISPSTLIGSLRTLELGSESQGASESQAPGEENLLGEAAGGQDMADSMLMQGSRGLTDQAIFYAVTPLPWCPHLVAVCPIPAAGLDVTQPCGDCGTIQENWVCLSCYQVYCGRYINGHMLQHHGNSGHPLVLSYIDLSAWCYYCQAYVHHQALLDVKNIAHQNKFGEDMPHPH
# EXPERIMENT_SUMMARY: In vitro HDAC inhibition preincubation assay (ZMAL substrate)
MEASUREMENT_TYPE: IC50

[[record]]
chemical_structure = "CC(=O)Nc1ccc(C(=O)Nc2cc(-c3ccnc(F)c3)ccc2N)cc1"
subject_of_test = "human recombinant HDAC6 (Homo sapiens, UniProt Q9UBN7)"
assay_value = "> 10 µM"

[[record]]
chemical_structure = "CC(=O)Nc1ccc(C(=O)Nc2cc(-c3ccccc3)ccc2N)cc1"
subject_of_test = "human recombinant HDAC6 (Homo sapiens, UniProt Q9UBN7)"
assay_value = "> 10 µM"

[[record]]
chemical_structure = "CC(=O)Nc1ccc(C(=O)Nc2cc(-c3cccnc3)ccc2N)cc1"
subject_of_test = "human recombinant HDAC6 (Homo sapiens, UniProt Q9UBN7)"
assay_value = "> 10 µM"

[[record]]
chemical_structure = "CC(=O)Nc1ccc(C(=O)Nc2cc(-c3ccc(F)nc3)ccc2N)cc1"
subject_of_test = "human recombinant HDAC6 (Homo sapiens, UniProt Q9UBN7)"
assay_value = "> 10 µM"

[[record]]
chemical_structure = "CC(=O)Nc1ccc(C(=O)Nc2cc(-c3ccc(F)cc3)ccc2N)cc1"
subject_of_test = "human recombinant HDAC6 (Homo sapiens, UniProt Q9UBN7)"
assay_value = "> 10 µM"

[[record]]
chemical_structure = "CN(C)c1ccc(C(=O)N(CC(=O)NC(C)(C)C)Cc2ccc(C(=O)Nc3cc(-c4ccncc4)ccc3N)cc2)cc1"
subject_of_test = "human recombinant HDAC6 (Homo sapiens, UniProt Q9UBN7)"
assay_value = "> 10 µM"

[[record]]
chemical_structure = "CN(C)c1ccc(C(=O)N(CC(=O)NC2CCCCC2)Cc2ccc(C(=O)Nc3cc(-c4ccncc4)ccc3N)cc2)cc1"
subject_of_test = "human recombinant HDAC6 (Homo sapiens, UniProt Q9UBN7)"
assay_value = "> 10 µM"

[[record]]
chemical_structure = "CC(=O)Nc1ccc(C(=O)Nc2cc(-c3ccccn3)ccc2N)cc1"
subject_of_test = "human recombinant HDAC6 (Homo sapiens, UniProt Q9UBN7)"
assay_value = "> 10 µM"

[[record]]
chemical_structure = "CC(=O)Nc1ccc(C(=O)Nc2cc(-c3ccncc3)ccc2N)cc1"
subject_of_test = "human recombinant HDAC6 (Homo sapiens, UniProt Q9UBN7)"
assay_value = "> 10 µM"


The reported IC50 of the compound CC(=O)Nc1ccc(C(=O)Nc2cc(-c3cccnc3F)ccc2N)cc1 was > 10 µM

---

# EXPERIMENT_SUMMARY: LogD7.4 by OECD slow-stirring method with HPLC quantification
# CONDITION_INFO: 1-octanol/PBS buffer (mutually saturated), pH 7.4, LogD(7.4) (II), single slow-stirring experiment II
MEASUREMENT_TYPE: logD at 48 h
Just the number.

The reported logD at 48 h of the compound O=C(CCCCCCC(=O)Nc1ccccc1)NO [vorinostat, reference compound] was 0.962

---

# EXPERIMENT_SUMMARY: LogD7.4 by OECD slow-stirring method with HPLC quantification
# CONDITION_INFO: 1-octanol/PBS buffer (mutually saturated), pH 7.4, LogD(7.4) (I), single slow-stirring experiment I
MEASUREMENT_TYPE: logD at 48 h
Just the number.

The reported logD at 48 h of the compound O=C(CCCCCCC(=O)Nc1ccccc1)NO [vorinostat, reference compound] was 1.01

---

# System: MCF‐7 breast cancer cell line
# EXPERIMENT_SUMMARY: WST-8 cell viability assay
# CONDITION_INFO: Homo sapiens, MCF7, 120 h, read-out: IC50 MCF‐7
MEASUREMENT_TYPE: IC50 (µM)

Study these solved cases before continuing.
[[record]]
compound = "CN(C)c1ccc(C(=O)N(CC(=O)NCc2ccccc2)Cc2ccc(C(=O)Nc3cc(-c4ccncc4)ccc3N)cc2)cc1"
subject_of_test = "MCF‐7 breast cancer cell line"
measurement_type = "IC50"
assay_value = 3.24

[[record]]
compound = "Nc1ccccc1NC(=O)c1ccc(CNC(=O)OCc2cccnc2)cc1 [entinostat, reference compound]"
subject_of_test = "MCF‐7 breast cancer cell line"
measurement_type = "IC50"
assay_value = 8.98


A. CN(C)c1ccc(C(=O)N(CC(=O)NC2CCCCC2)Cc2ccc(C(=O)Nc3cc(-c4ccncc4)ccc3N)cc2)cc1
B. CN(C)c1ccc(C(=O)N(CC(=O)NC(C)(C)C)Cc2ccc(C(=O)Nc3cc(-c4ccncc4)ccc3N)cc2)cc1
C. CC(=O)Nc1ccc(C(=O)Nc2cc(-c3ccncc3)ccc2N)cc1
Query: Please list these in order of increasing IC50. Thank you! The reply should contain the labels ordered as requested.
Result: B, A, C
(B: 1.62 µM, A: 4.33 µM, C: 11.1 µM)
